Known z-score of a selection of molecules
testMethodNotes: galactose survival enhancers in mitochondrial complex I cybrids – cell-based, galactose medium, ATP luminescence, primary screen (AID 1645843);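 also: positive z means more ATP and so rescue of galactose-driven cybrid death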
testParameters: complex I mutant cybrid cells, 72 h, stronger effect = higher value
Could you respond with only the numeric value?

molecule: CC(=O)OC1CC2CCC3C(CC[C@@]4(C)C3CC([N+]3(C)CCCCC3)C4OC(C)=O)[C@@]2(C)CC1N1CCCCC1 (stereo not given in full)
z-score: 0.43
//
molecule: CC(=O)c1cccc(-c2cc3c(n(CC=C(C)C)c2=O)CCN(Cc2cnc(N(C)C)s2)C3)c1
z-score: 0.475
//
molecule: Cn1cc(CN2CC(OCc3cccnc3)CN(Cc3cn[nH]c3-c3ccccc3)CC2=O)cn1 (stereo not given)
z-score: 0.715
//
molecule: CCn1c(C(=O)OC)c(NC(C)=O)c2cc(NCc3ccc(OC)cc3)cnc21
z-score: -0.96
//
molecule: CCn1ncc(NC(=O)Cn2ccc(-c3ncnn3C)n2)n1
z-score: -0.5
//
molecule: CC=CC(=O)N(CC)c1ccccc1C
z-score: 0.595
//
molecule: CCc1ccc(CNc2cnc3c(c2)c(NC(=O)c2cccnc2)c(C(=O)OC)n3CC(C)C)o1
z-score: -1.67
//
molecule: CCCc1cn(C2CCN(C(=O)CC3CC(C)(C)NC(C)(C)C3)CC2)nn1
z-score: -0.53
//
molecule: Cn1c(=O)c(O)c(O)c2ccccc21
z-score: -2.27
//
molecule: Cc1nc2ccc(CN(C)c3ccc(C(=O)NC(CCC(=O)O)C(=O)O)s3)cc2c(=O)[nH]1 (stereo not given)
z-score: -1.03

**Q:** Field request: z-score | item: CN1Cc2sccc2C(c2ccc(O)c(O)c2)C1 (stereo not given)
**A:** -1.25

**Q:** Please look up its z-score: CC(C)CN1CC(OCc2cccc(F)c2)CN(Cc2cccn2-c2ncccn2)CC1=O (stereo not given)
**A:** 0.085

###

testMethodNotes: BT084 cell growth, single and combined drugs, ICGC_MB145, cisplatin and BGB IC40 combos (AID 1671461);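 also: cells exposed to drugs for 96 hours; 0% = vehicle DMSO and 100% = high DMSO full killing control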
testParameters: BT084 medulloblastoma cells, drug combinations, at 0.5 µM, stronger effect = higher value
Response key: true (1) means inhibition >= -20%; false (0) means inhibition < -20%.

compound: Cc1cc(C#N)cc(C)c1Oc1nc(Nc2ccc(C#N)cc2)nc(N)c1Br
labelValue: true (1)
--
compound: Nc1nc(NC2CC2)cc(-c2cccc(Cl)c2Cl)n1
labelValue: true (1)
--
compound: NC(=S)NN=Cc1ncccc1N
labelValue: false (0)
--
compound: CC(C)(O)[C@H]1CC[C@@](C)(C2[C@@H](O)C[C@@]3(C)[C@@H]4C[C@H](O)C5C(C)(C)[C@@H](O)CCC56CC46CC[C@]23C)O1 (stereo not given in full)
labelValue: true (1)

**Q:** Textbook exercise: given the entry CCC(C)C(=O)OC1CC(C)C=C2C=CC(C)C(CCC3CC(O)CC(=O)O3)C21 (stereo not given) , state whether its inhibition is greater than or equal to -20%.
**A:** true (1)

###

testMethodNotes: P. berghei load reduction in hepatocytes – cell-based, HepG2, luciferase luminescence, HepG2 viability, primary screen (AID 624349);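 also: 100% = mean of DMSO negative control wells on the same plate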
testParameters: P. berghei liver stage in HepG2, luciferase luminescence, concentration not given here; measured here: HepG2 viability without parasites
Listing of entries alongside the reported viability.
Use % as the unit, but write only the number.

compound: CC(C)(CS)C(=O)N1CCC[C@@H]1C(=O)O
viability [%]: 94.8
//
compound: CC1CS(=O)(=O)CCN1N=Cc1ccc([N+](=O)[O-])o1 (centres undefined)
viability [%]: 75.5
//
compound: CN1[C@@H](C[C@H](O)c2ccccc2)CCC[C@H]1CC(=O)c1ccccc1
viability [%]: 128
//
compound: CC(=O)Nc1c(I)c(C(=O)NC2[C@H](O)OC(CO)[C@@H](O)[C@H]2O)c(I)c(N(C)C(C)=O)c1I (some centres undefined)
viability [%]: 75.5
//
compound: C[C@H]1[C@H](C)CC[C@]2(C(=O)O[C@@H]3O[C@H](COC4O[C@H](CO)[C@@H](OC5O[C@@H](C)[C@H](O)[C@@H](O)[C@H]5O)[C@H](O)[C@H]4O)[C@@H](O)[C@H](O)[C@H]3O)CC[C@]3(C)C(=CC[C@@H]4[C@@]5(C)C[C@@H](O)[C@H](O)[C@@](C)(CO)C5CC[C@]43C)[C@H]12 (some centres undefined)
viability [%]: 74.2
//
compound: O=C1NCCc2[nH]c(-c3ccnc(-c4cnc5ccccc5c4)c3)cc21
viability [%]: 77.1

**Q:** Please give the measured viability for this compound: COc1ccc(CC(N)C(=O)N[C@@H]2C(O)[C@H](n3cnc4c(N(C)C)ncnc43)O[C@@H]2CO)cc1 (some centres undefined)
**A:** 14.9

**Q:** Consider the compound CCCCCCCCCCCCCCCC(=O)O[C@@H]1[C@@H](O)[C@@H](O)[C@@H](C(NC(=O)[C@@H]2C[C@@H](CCC)CN2C)C(C)Cl)O[C@@H]1SC (some centres undefined) and give its measured viability.
**A:** 204

**Q:** Query: viability; subject: C=C1CC[C@H](O)C/C1=C/C=C1\CCC[C@]2(C)[C@@H]([C@H](C)CCCC(C)C)CC[C@@H]12
**A:** 106

**Q:** Name the reported viability value associated with the compound CC[C@@H]1OC(=O)[C@H](C)[C@H](O[C@H]2C[C@@](C)(OC)[C@@H](O)[C@H](C)O2)[C@@H](C)[C@@H](O[C@@H]2O[C@H](C)C[C@H](N(C)C)[C@H]2O)C(C)(O)C[C@@H](C)[C@@H]2NC(COCCOC)OC([C@H]2C)[C@]1(C)O (some centres undefined)
**A:** 77.5

**Q:** Could you tell me which viability is on file for COc1ccc(CCC(=O)c2c(O)cc(O[C@@H]3O[C@H](CO)C(O)[C@H](O)C3O[C@@H]3O[C@@H](C)[C@H](O)[C@@H](O)[C@H]3O)cc2O)cc1O (some centres undefined) ?
**A:** 70.8

**Q:** Give the measured viability of C=C(NC(=O)C(=C)NC(=O)c1csc(C2=N[C@H]3c4csc(n4)[C@H]4NC(=O)c5csc(n5)[C@H]([C@@](C)(O)[C@@H](C)O)NC(=O)[C@H]5CSC(=N5)/C(=C\C)NC(=O)[C@H]([C@@H](C)O)NC(=O)c5csc(n5)[C@]3(CC2)NC(=O)[C@H](C)NC(=O)C(=C)NC(=O)[C@H](C)NC(=O)[C@H](C(C)CC)N[C@@H]2C=Cc3c([C@H](C)O)cc(nc3[C@H]2O)C(=O)O[C@@H]4C)n1)C(N)=O (some centres undefined) .
**A:** 102

**Q:** viability for COc1ccc2c3c([nH]c2c1)[C@H]1C[C@H]2[C@H](C[C@@H](O)[C@H](OC)[C@H]2C(=O)O)CN1CC3 ?
**A:** 75.4

**Q:** Item CO/N=C(\C(=O)N[C@@H]1C(=O)N2C(C(=O)O)=C(C[N+]3(C)CCCC3)CS[C@H]12)c1csc(N)n1 has what recorded viability?
**A:** 76.2
